target_of_assay: Coagulation factor X (Oryctolagus cuniculus)
test: Inhibitory activity against coagulation factor X at a concentration of 1 uM
endpoint_name: inhibition (%)

See these solved cases before continuing.
Cc1c(S(=O)(=O)N[C@H]2CCN(Cc3cc4c[nH]ccc-4n3)C2=O)sc2ccc(Cl)cc12; 37
O=C1[C@@H](NS(=O)(=O)c2cc3ccnc(Cl)c3s2)CCN1Cc1cc2[nH]cccc-2n1; 45

I: O=C1[C@@H](NS(=O)(=O)c2cc3c(Cl)nccc3s2)CCN1Cc1cc2c[nH]ccc-2n1
II: O=C1[C@@H](NS(=O)(=O)c2nc3cc(Cl)ccc3[nH]2)CCN1Cc1cc2cc[nH]cc-2n1
III: CC(C)(C)c1ccc(S(=O)(=O)N[C@H]2CCN(CCNc3ccncc3)C2=O)cc1
(Q) Please list these compounds in decreasing order of inhibition. Please express your ranking as an ordered list of the labels.
(A) I, II, III

Entry source: ChEMBL document CHEMBL1132870
